Assign protein stability index to each entry below.
Experiment: protein stability index of a GFP-peptide fusion (GPS, HEK-293T) (PSI 1-6); higher = more stable;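 further: 24-mer peptide tiles fused after GFP, lentivirally expressed, FACS-sorted into six equal bins by GFP/DsRed ratio, decoded by Illumina sequencing, PSI is the read-weighted mean bin number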
Settings: treatment: DMSO; c terminus: a fixed tail appended
Please give only the number in your answer, with no unit.

Problem: // returns reported protein stability index for input MPNGCSDDVLPWRRTAENKLDTKY [DCTD]
Solution: 4

Problem: So what does the record say about protein stability index for AFHVRRTNRVKECLAKGTFSDVTF [RHOBTB2] ?
Solution: 2.57

Problem: Can you look up the measured protein stability index of EAIQPYRDRLRSRLEALSTERDEI [TRIM15] for me?
Solution: 4.61

Problem: Given PACLGQPHTPGKPTSSCTSRSAPP [FOXJ1] , state its recorded protein stability index.
Solution: 4.51

Problem: So what's the measured protein stability index for this one? LFNLSNFLDKSGSHGYDMSTFIRR [SNAP91]
Solution: 2.62

Problem: Which protein stability index reading was recorded for the sequence SESMENINSGYETRRKKGKKDKDI [KMT2E] ?
Solution: 5.01

Problem: Entry LVSDDPRCRLSLDDRVLSSLVRDT [POP5] has what protein stability index?
Solution: 3.44

Problem: // lookup protein stability index for LSTPDSQSLRCDLIRYICGVVHPS [INTS3]
Solution: 2.29

Problem: What measured protein stability index goes with IVILENIAVAWIYGTKKFMQELTE [SLC6A17] ?
Solution: 3.05

Problem: # input sequence: NLPCNKFKNRLVNIMPYESTRVCL [PTPRD] ; wanted: its protein stability index
Solution: 2.15

Problem: // protein stability index lookup, key: DLIDVREVMERDAKDYADSIHAIF [RAB22A]
Solution: 3.16

Problem: Which value of protein stability index has been reported for RARIAKGLRLCRPKAKAKAKAKAK [RPL29] in the records?
Solution: 4.16

Problem: Any idea what its protein stability index is? The sequence is CMKIPTGQEYAAKIINTKKLSARD [CAMK2D]
Solution: 3.7

Problem: Record request: protein stability index value, item DPHSGHFVALKSVRVPNGGGGGGG [CDK4]
Solution: 4.01

Problem: May I ask what protein stability index has been recorded for MELKVGDFGLAARLEPLEHRRRTI [PLK2] ?
Solution: 3.23

Problem: Given GLCKQDGQLRVFGAGLLSSISELK [TPH1] , state its recorded protein stability index.
Solution: 2.05

Problem: Entry SDSPDAADSTSFDVQLGDIILTAT [PPTC7] : reported protein stability index = ?
Solution: 3.98

Problem: Given the entry GGTPARSGTTLISVIVLDINDNAP [PCDHGC5] , report its measured protein stability index.
Solution: 2.66

Problem: Reported protein stability index, sequence IELNGGQPPLTYKRFQTLISKMEP [CRY1] : ____
Solution: 2.53

Problem: Please give the measured protein stability index for this sequence: QELIQEAKPRATWTLKLDGNLQLD [RTP4]
Solution: 3.89

Problem: Endpoint output: protein stability index of LKTSNLPEELRKVFITYSMDTAME [TRAF3IP2] . Value?
Solution: 2.41

Problem: Requested read-out: protein stability index. Entry: GLDVLLAQEVRPRRWKLQVLDLRK [PRAME]
Solution: 2.31

Problem: Need protein stability index, item YQRFRQKSKASFLLLASGLVITDF [PTGFR]
Solution: 2.65

Problem: What does the data say about its protein stability index? Entry: LKDVKSTLEKCEKVKTMEVTSVSI [TRIM39]
Solution: 3.92

Problem: Given the entry PKWGWEQLEVTCTPYLKETLNSIW [POMT2] , report its measured protein stability index.
Solution: 2.49

Problem: Recorded protein stability index of VPNAKKLRRKEQLWEKLAKQGELP [NOP53] , please.
Solution: 3.35

Problem: Tell me the measured protein stability index of ALQEKLWNVAAPLYLKQSDLASAA [INTS4] , please.
Solution: 2.31

Problem: Suppose we examine the sequence NAIRVHHALATRASDYSKKSNVLK [PSD2] ; what protein stability index value has been reported?
Solution: 3.46

Problem: So what does the record say about protein stability index for QPLEGGTPNSAGGPGAHILRRKSP [ADAMTS4] ?
Solution: 5.34

Problem: Please give the measured protein stability index for this sequence: KRGSIPTSLTALSLASASPPLSGR [PPFIA4]
Solution: 3.99

Problem: // protein stability index lookup, key: PEEELDFFEILRLFFPVIYDVKYL [CNOT7]
Solution: 2.35

Problem: State the recorded protein stability index for this entry: DSASLPRKPSVPWQRQMDQPQDRN [RASAL3]
Solution: 4.65

Problem: Reported protein stability index for DRSVQRLLATRIAVYLMTFLIVTV [TMEM175] : what is it?
Solution: 3.15

Problem: Given the entry SLAYCLACGGGHLLPYFYIIYMAI [DHCR7] , report its measured protein stability index.
Solution: 2.6

Problem: Give the measured protein stability index of GSLKSVEVREPALRPAKRELRGAE [SPSB4] .
Solution: 4.98

Problem: Can you look up the measured protein stability index of RTPEPLEEFPKREDQEGSPPETSL [MYBL2] for me?
Solution: 5.4

Problem: Recorded protein stability index of CCAAPGPHVALAVRYNRVGILRRI [ANKRD9] , please.
Solution: 2.37

Problem: Given the entry PGRRDEDAGEGIQCSQRMLSFSDA [TMEM175] , report its measured protein stability index.
Solution: 5.07

Problem: Value lookup for protein stability index; key = RAFLQTYSHEVSLTADSRKSHLIF [PCDHGA10]
Solution: 2.2

Problem: // lookup protein stability index for QVQLGLRCCGAASYQDWQQNLYFN [TSPAN10]
Solution: 3.12

Problem: // returns reported protein stability index for input WTRITCAEEGWSPTPKCLRLCFFP [CFHR2]
Solution: 2.82

Problem: Which protein stability index value is on record for SISELKHALSGHAKVKPFDPKITC [TPH1] ?
Solution: 2.77

Problem: Return reported protein stability index; argument: FPTVVWTWWIMFLSTFSVPYFLFQ [SOAT1]
Solution: 3.1

Problem: Returns the measured protein stability index for the input sequence. Input: GLSESSGPHTISNQNNYRLLSCGK [ACSBG2]
Solution: 4.55

Problem: Quick one: protein stability index of PEFELLWKDIIHNPQALSPQFTGI [INTS3] ?
Solution: 2.16

Problem: GET /values?readout=protein stability index&item= IVISYIHVAAAVLRIRSVEGRKKA [OR3A1]
Solution: 2.37

Problem: // protein stability index lookup, key: DQLIGQGIIVKDARLNGSVASYIL [TENT5D]
Solution: 2.3

Problem: Look up protein stability index: SSHSRGPLSWAPCGPIAGSRQALS
Solution: 3.42

Problem: Which measured protein stability index value corresponds to LFDNPKLDKELRAMLREKFPEFCS [INTS3] ?
Solution: 2.03

Problem: Data request, read-out protein stability index, for QLDSRYWRITNAKGDVEEVQGPGV [FBXO3]
Solution: 4.14

Problem: Name the recorded protein stability index for FNIAGTVVKYRRPMDVYETGIEYI [ADAMTSL2] .
Solution: 2.16

Problem: Find the recorded protein stability index belonging to EVPEMSPVTCCDVSSNNRLVVTGS [TLE6] and report it.
Solution: 4.35

Problem: # get_value(readout='protein stability index', item= AFDYNSLSPTQRQKNFELAFTMAE [SMTNL2] )
Solution: 2.76
